target: human BACE1 ECD (human, UniProt P56817); assay: cell-based or functional assay; further: test concentration or dose not given here
Sequence (P56817 22-457): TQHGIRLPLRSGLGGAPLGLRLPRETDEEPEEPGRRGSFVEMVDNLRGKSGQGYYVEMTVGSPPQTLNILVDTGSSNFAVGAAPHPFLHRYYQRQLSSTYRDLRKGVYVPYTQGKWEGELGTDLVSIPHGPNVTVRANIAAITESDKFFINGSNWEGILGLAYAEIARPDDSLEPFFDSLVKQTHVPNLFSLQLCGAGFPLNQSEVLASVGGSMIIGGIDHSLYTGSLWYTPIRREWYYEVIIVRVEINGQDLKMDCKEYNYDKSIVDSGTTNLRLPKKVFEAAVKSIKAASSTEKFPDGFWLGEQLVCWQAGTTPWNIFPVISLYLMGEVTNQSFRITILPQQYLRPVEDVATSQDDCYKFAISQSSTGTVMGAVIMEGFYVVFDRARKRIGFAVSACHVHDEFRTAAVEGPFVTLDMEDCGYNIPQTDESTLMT
Measured Metric: % inhibition, FRET short substrate assay (negative = activation)
Param answer (str): number followed by unit.

Look over these answered cases.
5890 (antibody, V domains shown) VH: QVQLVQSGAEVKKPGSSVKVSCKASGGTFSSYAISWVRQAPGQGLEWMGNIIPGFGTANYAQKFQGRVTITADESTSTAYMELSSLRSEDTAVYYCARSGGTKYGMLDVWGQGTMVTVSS VL: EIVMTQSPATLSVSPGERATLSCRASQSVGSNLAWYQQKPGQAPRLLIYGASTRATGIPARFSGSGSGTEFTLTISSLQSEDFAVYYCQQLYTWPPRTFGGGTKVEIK
66%
5897 (antibody, V domains shown) VH: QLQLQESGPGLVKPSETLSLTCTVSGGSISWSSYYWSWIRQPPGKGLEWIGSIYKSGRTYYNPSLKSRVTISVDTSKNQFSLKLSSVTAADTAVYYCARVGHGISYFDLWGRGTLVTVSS VL: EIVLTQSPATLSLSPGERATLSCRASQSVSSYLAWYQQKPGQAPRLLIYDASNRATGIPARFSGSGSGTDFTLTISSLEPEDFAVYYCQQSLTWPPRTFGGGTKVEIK
1%

Field: next binder
# lookup: % inhibition, FRET short substrate assay (negative = activation) of 5536 (antibody, V domains shown) VH: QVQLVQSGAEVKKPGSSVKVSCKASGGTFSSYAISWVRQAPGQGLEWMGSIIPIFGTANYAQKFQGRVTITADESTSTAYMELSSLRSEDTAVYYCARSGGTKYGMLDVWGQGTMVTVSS VL: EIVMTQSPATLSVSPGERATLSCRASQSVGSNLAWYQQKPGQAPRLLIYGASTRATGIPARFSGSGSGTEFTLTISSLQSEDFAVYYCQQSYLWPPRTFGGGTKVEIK
32%
